Data provenance: patent US20230192819A1

Exercise: for every item that follows, state its recorded pKd.
assayed.system: C52Hk S. African variant (Acro) spike protein (SARS-CoV-2, UniProt P0DTC2 16-1213)
assay.details: SPR (Carterra LSA); antibody on chip, spike protein as analyte; summary table
Answers are plain numbers, as −log10 of the molar value.

Antibody 1-1 (Fc fusion) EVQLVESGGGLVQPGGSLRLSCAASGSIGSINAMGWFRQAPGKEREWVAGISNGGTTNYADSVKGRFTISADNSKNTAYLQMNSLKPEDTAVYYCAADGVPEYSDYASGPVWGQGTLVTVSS | 8.97

Batch of 4 binders: report pKd for each.
1. Antibody 1-7 (Fc fusion) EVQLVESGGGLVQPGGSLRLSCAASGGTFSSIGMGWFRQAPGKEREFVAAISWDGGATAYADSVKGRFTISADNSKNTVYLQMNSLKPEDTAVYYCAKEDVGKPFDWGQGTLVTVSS
2. Antibody 1-8 (Fc fusion) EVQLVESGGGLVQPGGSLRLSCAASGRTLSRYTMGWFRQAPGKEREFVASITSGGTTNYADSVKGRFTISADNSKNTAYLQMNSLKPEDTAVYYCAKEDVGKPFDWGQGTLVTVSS
3. Antibody 1-10 (Fc fusion) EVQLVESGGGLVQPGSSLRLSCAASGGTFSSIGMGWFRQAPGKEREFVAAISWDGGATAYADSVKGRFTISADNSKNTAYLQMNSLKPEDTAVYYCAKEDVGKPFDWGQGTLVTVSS
4. Antibody 1-11 (Fc fusion) EVQLVESGGGLVQPGGSLRLSCAASGFTFDDYVMGWFRQAPGKEREFVAVISWTGESTLYADSVKGRFTISADNSKNTAYLQMNSLKPEDTAVYYCAAFDGYSGSDWGQGTLVTVSS

Solution:
1: 8.87; 2: 9.00; 3: 7.86; 4: 8.30

Problem: I have this binder here, Antibody 1-15 (Fc fusion) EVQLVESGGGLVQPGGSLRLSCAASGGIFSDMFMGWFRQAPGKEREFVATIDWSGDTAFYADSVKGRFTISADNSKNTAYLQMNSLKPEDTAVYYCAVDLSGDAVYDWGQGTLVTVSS , and I need its recorded pKd.
Solution: 8.85
